target: T1, human HER2 His6 protein, extracellular domain (NCBI NP_004439.2, Met 1-Thr 652), C-terminal polyhistidine tag (human, UniProt P04626 23-652); test: ForteBio OCTET R2, antibody captured on Protein A sensor, HER2 protein in solution, 25 °C
T1 construct: range 1-652; The stated range includes Met 1; also called HER2-ECD; human HER2-ECD
observed.property: koff (s⁻¹)
# output: bare number, implied unit s⁻¹

// solved cases for koff follow
>>> observed_value("HER2 VHH-FC1 fusion protein 1-C09 (Fc fusion, 25; also called 1-C09-FC1; 1-C9-FC1) DVQLVESGGGLVQPGGSLRLSCEASGLTFRRYHFSWYRQPPGKERELVAVISDTGSTTNYTDSVKGRFTISRDLARNTVFLQLNSLKPDDTAVYYCNAKWPIIAADWWGQGTQVTVSSEPKSSDKTHTCPPCPAPEFEGGPSVFLFPPKPKDTLMISRTPEVTCVVVDVSHEDPEVKFNWYVDGVEVHNAKTKPREEQYNSTYRVVSVLTVLHQDWLNGKEYKCKVSNKALPASIEKTISKAKGQPREPQVYTLPPSRDELTKNQVSLTCLVKGFYPSDIAVEWESNGQPENNYKTTPPVLDSDGSFFLYSKLTVDKSRWQQGNVFSCSVMHEALHNHYTQKSLSLSPGK")
0.0118
>>> observed_value("HER2 VHH-FC1 fusion protein 2-F03 (Fc fusion, 25; also called 2-F03-FC1; chimeric nanobody 2-F03) EVQLVESGGGLVQPGGSLRLSCAASGLTFRRYHMSWYRQAPGKERELVAVISDTGTTNYAESVKGRFTISRDNSRSTVFLQLNSLKPDDTAVYYCNGRWPAVAADWWGQGTQVTVSSEPKSSDKTHTCPPCPAPEFEGGPSVFLFPPKPKDTLMISRTPEVTCVVVDVSHEDPEVKFNWYVDGVEVHNAKTKPREEQYNSTYRVVSVLTVLHQDWLNGKEYKCKVSNKALPASIEKTISKAKGQPREPQVYTLPPSRDELTKNQVSLTCLVKGFYPSDIAVEWESNGQPENNYKTTPPVLDSDGSFFLYSKLTVDKSRWQQGNVFSCSVMHEALHNHYTQKSLSLSPGK")
0.0108

Recorded koff of HER2 VHH-FC1 fusion protein 1-C10 (Fc fusion, 25; also called 1-C10-FC1; chimeric nanobody 1-C10) QVQLVESGGDLVQPGGSLRLSCATSGLTFRRYELKWYRQAPGKERELVAGITPASGSRNYADSVKGRFTISRDDAKMTVYLQMNSLEPEDTAVYYCNAYWMIPQHIENNYWGKGTLVTVSSEPKSSDKTHTCPPCPAPEFEGGPSVFLFPPKPKDTLMISRTPEVTCVVVDVSHEDPEVKFNWYVDGVEVHNAKTKPREEQYNSTYRVVSVLTVLHQDWLNGKEYKCKVSNKALPASIEKTISKAKGQPREPQVYTLPPSRDELTKNQVSLTCLVKGFYPSDIAVEWESNGQPENNYKTTPPVLDSDGSFFLYSKLTVDKSRWQQGNVFSCSVMHEALHNHYTQKSLSLSPGK , please.
0.001
